Attribution: patent US10501502B2

# RUN_DESCRIPTION: FP purification and fluorescence characterization in vitro (spectra, extinction coefficient, quantum yield)
# Format: physicochemical
# SETUP_CONDITIONS: evolved APCα FPs, Table 4
Catalogue of Emission Maximum values
Numeric answer only, unit nm assumed.

Form: molecule = R11-2: evolved APCα FP, SEQ ID NO: 12, with BV (protein, biliverdin chromophore; smRUFP Variant Polypeptide) MKTCEQRVNIATLLTENKKKIVDKASQDLWRRHPDLIAPGGIAFSQRDRALCLRDYGWYLHLITFCLLAGDKGPIESIGLISIREMYNSLGVPVPAMMESIRCLKEASLSLLEEEDANETAPYFDYIIKAMS ; Emission Maximum = 672

R3-2 + PCB: evolved APCα FP, SEQ ID NO: 4, with PCB (protein, phycocyanobilin chromophore; smRUFP Variant Polypeptide) MKTGEQRVKIATLLSENEKKIVDKASQDLWRRRPDFIAPGGIAFGQRERALCLRDYGWYLRLITFCLLAGDKDPIESIGLIGIREMYNSLGVPVPGMMESIRCLKEASLSLLDEEDAKETAPYFDYIIQAMS has a reported Emission Maximum of 648

Item: smURFP: small ultra-red fluorescent protein, SEQ ID NO: 13, homodimer, covalently attaches biliverdin (protein, homodimer; biliverdin chromophore; smRUFP Variant Polypeptide) MKTSEQRVNIATLLTENKKKIVDKASQDLWRRHPDLIAPGGIAFSQRDRALCLRDYGWFLHLITFCLLAGDKGPIESIGLISIREMYNSLGVPVPAMMESIRCLKEASLSLLDEEDANETAPYFDYIIKAMS | Emission Maximum: 670

# Emission Maximum (molecule: R8-8: evolved APCα FP, SEQ ID NO: 9, with BV (protein, biliverdin chromophore; smRUFP Variant Polypeptide) MKTCEQRVKIATLLSENKKKIVDKASQDLWRRHPDLIAPGGIAFSQRDRALCLRDYGWYLHLITFCLLAGDKGPIESIGLIGIREMYNSLGVPVPAMMESIRCLKEASLSLLDEEDANETAPYFDYIIKAMS ) is 672

Field Emission Maximum (entry R10-10: evolved APCα FP, SEQ ID NO: 11, with BV (protein, biliverdin chromophore; smRUFP Variant Polypeptide) MKTCEQRVNIATLLTENKKKIVDKASQDLWRRHPDLIAPGGIAFSQRDRALCLRDYGWYLHLITFCLLAGDKGPIESIGLIGIREMYNSLGVPVPAMMESIRCLKEASLSLLDEEDANETAPYFDYIIKAMS ) reads 672

Emission Maximum reported for this molecule R4-1: evolved APCα FP, SEQ ID NO: 5, with BV (protein, biliverdin chromophore; smRUFP Variant Polypeptide) MKTGEQRVKIATLLSENEKKIVDKASQDLWRRRPDFIAPGGIAFSQRERALCLRDYRWYLHLITFCLLAGDKDPIESIGLIGIREMYNSLGVPVPGMMESIRCLKEASLSLLDEEDAKETAPYFDYIIKAMS : 674
